src = PubChem BioAssay AID1672

- experimental_target: Inward rectifier potassium channel 2 (Mus musculus) (UniProt P35561)
- Sequence (P35561 whole entry, looked up): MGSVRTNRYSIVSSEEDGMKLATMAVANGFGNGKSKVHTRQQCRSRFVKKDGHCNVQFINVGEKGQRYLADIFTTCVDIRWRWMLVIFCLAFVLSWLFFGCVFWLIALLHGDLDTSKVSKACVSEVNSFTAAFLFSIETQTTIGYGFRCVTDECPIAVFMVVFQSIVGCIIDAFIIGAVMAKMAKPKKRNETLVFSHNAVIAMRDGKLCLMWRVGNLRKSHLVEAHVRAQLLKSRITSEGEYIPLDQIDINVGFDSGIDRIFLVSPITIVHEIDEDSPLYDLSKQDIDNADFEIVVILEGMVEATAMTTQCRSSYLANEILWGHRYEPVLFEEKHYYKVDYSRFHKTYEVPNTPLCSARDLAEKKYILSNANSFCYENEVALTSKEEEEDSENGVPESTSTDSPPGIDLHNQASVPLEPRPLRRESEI
- protocol_notes: blocks the mouse Kir2.1 inward-rectifier potassium channel (AID 1672);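 note: channel flux triggered by added potassium and thallium sulfate stimulus; B-score of peak minus minimum fluorescence over baseline after thallium stimulus; more negative B-score means stronger Kir2.1 block with less thallium influx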
- condition_notes: HEK293-Kir2.1, FluxOR thallium flux fluorescence; at 10 µM
Hit rate of the full screen: of about 310,000 compounds, about 2,600 (0.84%) were called active.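 Rule for the calls: active = fluorescence ratio B-score at or below minus 3 SD of library scores, with starting-brightness B-score within 2 SD (cut at about -4.2 in these data); inactive = the rest.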 The entries come from a sample that favours actives as a whole.
Outcomes: active, inactive

>  <compound>
COc1cccc(CN(C)C(=O)CC23CC4CC(CC(C4)C2)C3)c1OC

>  <class>
inactive

$$$$
>  <compound>
CC(NC(=O)CNC(=O)Cc1cccc2ccccc12)c1ccc(S(N)(=O)=O)cc1 (centres undefined)

>  <class>
inactive

$$$$
>  <compound>
COc1ccc(Nc2cc(Cl)ccc2C(=O)O)cn1

>  <class>
inactive

$$$$
>  <compound>
NC(N)=Nc1nc(-c2ccccc2)c2cc(Cl)ccc2n1

>  <class>
active

$$$$
>  <compound>
CC(NC(=O)CCCC1CCCCC1)c1ccc(S(N)(=O)=O)cc1 (centres undefined)

>  <class>
active

$$$$
>  <compound>
CC1COc2ccccc2N1S(=O)(=O)c1ccccc1 (centres undefined)

>  <class>
active

$$$$
>  <compound>
CCCCn1c(N)c(N(CCOC)C(=O)c2cccc(S(=O)(=O)N(C)c3ccccc3)c2)c(=O)[nH]c1=O

>  <class>
inactive

$$$$
>  <compound>
Cc1c(C)n2c(SCC(=O)NC3CCCC3)nnc2[nH]c1=O

>  <class>
inactive

$$$$
>  <compound>
COc1ccccc1CN(C)C(=O)c1cc2ccccc2o1

>  <class>
inactive

$$$$
>  <compound>
Cc1ccc2nc(SCC(=O)N3CCN(c4ccccc4)CC3)nc(=O)n2c1

>  <class>
inactive

$$$$
>  <compound>
COc1ccc(NC(=O)c2cc(-c3ccc(C)cc3)on2)cc1

>  <class>
inactive

$$$$
>  <compound>
COc1ccc(NC(=O)/C(Cl)=C(/Cl)S(=O)Cc2ccc(C)cc2)cn1 (centres undefined)

>  <class>
active

$$$$
>  <compound>
Clc1ccc(-c2cc(C3CCNCC3)[nH]n2)c(Cl)c1

>  <class>
active

$$$$
>  <compound>
Cc1ccc2nc(Nc3ccccc3O)nc(-c3ccccc3)c2c1

>  <class>
inactive

$$$$

###

- experimental_target: Inward rectifier potassium channel 2 (Mus musculus)
- protocol_notes: blocks the mouse Kir2.1 inward-rectifier potassium channel (AID 1672);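 note: channel flux triggered by added potassium and thallium sulfate stimulus; B-score of peak minus minimum fluorescence over baseline after thallium stimulus; more negative B-score means stronger Kir2.1 block with less thallium influx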
- condition_notes: HEK293-Kir2.1, FluxOR thallium flux fluorescence; at 10 µM
Among all 310,000 compounds or so, about 2,600 (0.84%) were called active.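 The calls were made as follows: active = fluorescence ratio B-score at or below minus 3 SD of library scores, with starting-brightness B-score within 2 SD (cut at about -4.2 in these data); inactive = the rest.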 Many of the other results were omitted from the sample, so actives are more common in it than they were.
Outcomes: active, inactive

>  <compound>
CCc1ccc(-c2nn(-c3ccccc3)cc2CSC(=N)N)cc1

>  <class>
active

$$$$
>  <compound>
CCCOc1ccc(C(=O)C(CCC(CNCC)C(=O)c2ccc(OCCC)cc2)CNCC)cc1 (stereo not drawn)

>  <class>
active

$$$$
>  <compound>
CCCCCCCCCCOC(=O)Cn1c(COc2cccc(OC)c2)[n+](C)c2ccccc21

>  <class>
active

$$$$
>  <compound>
COc1cccc(CC2(CO)CCCN(Cc3ccc(OC(F)F)cc3)C2)c1 (stereo not drawn)

>  <class>
inactive

$$$$
>  <compound>
Cc1ccc(S(=O)(=O)NCCC(=O)NNC(=O)C2COc3ccccc3O2)cc1 (stereo not drawn)

>  <class>
inactive

$$$$
>  <compound>
CC1(C)Oc2ccc3ccc(=O)oc3c2/C(=N/O)C1=O

>  <class>
inactive

$$$$
>  <compound>
Cc1cc2oc3ccc(NCCC4CCCN4C)cc3c(=O)c2cc1C (stereo not drawn)

>  <class>
active

$$$$
>  <compound>
Cc1ccc(S(=O)(=O)CCC(=O)Nc2nnc(CC(C)C)s2)cc1

>  <class>
inactive

$$$$
>  <compound>
Cc1ccc(OCCCn2c(=O)oc3ccccc32)cc1

>  <class>
inactive

$$$$
>  <compound>
COc1ccc(CCN=C2SCC(=O)N2Cc2ccccc2)cc1OC

>  <class>
active

$$$$
>  <compound>
CCn1c(COc2cccc(OC)c2)nnc1SCC(=O)N1CCOCC1

>  <class>
inactive

$$$$
>  <compound>
CCCOc1ccc(C(=O)CCC(=O)OC(C)C(=O)Nc2ccc(NC(C)=O)cc2)cc1 (stereo not drawn)

>  <class>
inactive

$$$$
>  <compound>
CCN(CC)CCn1c2c(c(SCC(=O)Nc3nc4ccccc4s3)nc1=O)CCCC2

>  <class>
inactive

$$$$
>  <compound>
CC12CCC(=O)N1C(C(=O)NCCN1C(=O)S/C(=C\c3ccccc3F)C1=O)CS2 (stereo not drawn)

>  <class>
inactive

$$$$
>  <compound>
N=C(N)SCc1cccc2ccccc12

>  <class>
inactive

$$$$
>  <compound>
CCOc1cc2ccccc2cc1C(=O)Nc1ccccn1

>  <class>
inactive

$$$$
>  <compound>
CCn1c(=N)n(CC(=O)c2cccc(OC)c2)c2ccccc21

>  <class>
inactive

$$$$
>  <compound>
CCOC(=O)CN1C(=O)C(=O)c2cc(C)ccc21

>  <class>
inactive

$$$$
>  <compound>
Cc1ccc(C(C)C)cc1OCCN1CCCC1

>  <class>
inactive

$$$$
>  <compound>
COCC(C)NCc1cc(Br)ccc1OC (stereo not drawn)

>  <class>
inactive

$$$$
>  <compound>
CCOCCCNCc1cc(Br)ccc1OCC

>  <class>
inactive

$$$$
>  <compound>
O=C1[C@H]2[C@@H](c3ccc(Cl)cc3)N3C(=O)N(c4cccc(F)c4)C(=O)[C@@]3(Cc3ccccc3)[C@H]2C(=O)N1C1CCCCC1

>  <class>
inactive

$$$$
>  <compound>
Cc1cc(OCCN2CCCC2)cc(C(C)C)c1

>  <class>
active

$$$$

###

- experimental_target: Inward rectifier potassium channel 2 (Mus musculus) (UniProt P35561)
- protocol_notes: blocks the mouse Kir2.1 inward-rectifier potassium channel (AID 1672);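 note: channel flux triggered by added potassium and thallium sulfate stimulus; B-score of peak minus minimum fluorescence over baseline after thallium stimulus; more negative B-score means stronger Kir2.1 block with less thallium influx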
- condition_notes: HEK293-Kir2.1, FluxOR thallium flux fluorescence; at 10 µM
In all, about 310,000 compounds went through this assay and about 2,600 (0.84%) were called active.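 How the source made its calls: active means fluorescence ratio B-score at or below minus 3 SD of library scores, with starting-brightness B-score within 2 SD (cut at about -4.2 in these data); inactive means the rest.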 For the sample, actives were picked, then their nearest neighbours and some compounds at random.
Outcomes: active, inactive

>  <compound>
CCN(CC)CCOC(=O)c1ccc(NC(=O)CNC(=O)c2ccccc2)cc1

>  <class>
inactive

$$$$
>  <compound>
CC(=O)c1sc(N)nc1C

>  <class>
inactive

$$$$
>  <compound>
COc1cc(/C=N/O)cc(Br)c1OCc1cccc(Cl)c1

>  <class>
inactive

$$$$
>  <compound>
CSc1c(SCc2ccccc2)cnn(Cc2ccccc2)c1=O

>  <class>
active

$$$$
>  <compound>
COc1ccc(NC(=O)CSc2nnc(-c3cccs3)n2Cc2ccco2)cc1OC

>  <class>
inactive

$$$$
>  <compound>
CCOc1ccc(NS(=O)(=O)c2cc(C)c(C)cc2C)cc1

>  <class>
inactive

$$$$
>  <compound>
Cc1ccc(N2CC(C(=O)N3CCC4(CC3)CC(=O)c3ccccc3O4)CC2=O)cc1C (centres undefined)

>  <class>
inactive

$$$$
>  <compound>
Cc1cc(C)c(C)c(S(=O)(=O)Nc2cccnc2)c1C

>  <class>
inactive

$$$$
>  <compound>
Cc1cc(C)cc(NC(=O)CSc2ccccc2)c1

>  <class>
inactive

$$$$
>  <compound>
COc1cccc(C(=O)NCCS(=O)(=O)NCC2CCCO2)c1 (centres undefined)

>  <class>
inactive

$$$$
>  <compound>
O=C(CSc1nnc(-c2cnccn2)n1Cc1ccco1)c1ccc(Cl)c(Cl)c1

>  <class>
inactive

$$$$
>  <compound>
Cc1cc(Nc2ccc(Br)cc2)nc2ccccc12

>  <class>
inactive

$$$$
>  <compound>
O=C(CSc1nnc(-c2cccnc2)n1Cc1ccco1)c1ccc(Cl)c(Cl)c1

>  <class>
inactive

$$$$
>  <compound>
O=C(CN1C(=O)NC2(CCCC2)C1=O)OCCOc1ccc(F)cc1

>  <class>
inactive

$$$$
>  <compound>
O=C(CSc1nnc(-c2cccs2)n1Cc1ccco1)c1ccc2c(c1)OCO2

>  <class>
active

$$$$
>  <compound>
CCn1cc(CN2CCC(C(=O)Nc3cccc(-c4cccc(Cl)c4)c3)CC2)cn1

>  <class>
active

$$$$
>  <compound>
CCc1cccc(C)c1NC(=O)COC(=O)CNC(=O)c1cccs1

>  <class>
inactive

$$$$
>  <compound>
COc1cc(C(=O)OCC(=O)N(CC(C)C)C2CCS(=O)(=O)C2)ccc1OCC(C)C (centres undefined)

>  <class>
inactive

$$$$
>  <compound>
O=S(=O)(NCCCc1ccccc1)c1ccc(Br)cc1

>  <class>
inactive

$$$$
>  <compound>
Cc1ccc(S(=O)(=O)NC(C)C(=O)NCc2ccc(Cl)cc2)cc1 (centres undefined)

>  <class>
inactive

$$$$
>  <compound>
O=C(Nc1cccc(-c2cscn2)c1)C1CCN(Cc2ccsc2)CC1

>  <class>
active

$$$$
>  <compound>
COc1ccc(C(=O)c2c3ccc([N+](=O)[O-])cc3[n+]([O-])n2CCCN)cc1

>  <class>
inactive

$$$$
>  <compound>
CC(=O)Nc1ccc(SCC(=O)Nc2ccccc2Oc2ccccc2)cc1

>  <class>
active

$$$$
>  <compound>
Cc1ccn2c(=O)c(NC(=O)c3cccc4ccccc34)c(C)nc2c1

>  <class>
inactive

$$$$
>  <compound>
COC(=O)c1ccc(NC(=O)c2ccccc2NS(=O)(=O)c2ccccc2)cc1

>  <class>
inactive

$$$$
>  <compound>
COc1cc(NC(=O)c2cccnc2SC)cc(OC)c1

>  <class>
inactive

$$$$
>  <compound>
CCOC(=O)c1c(C)[nH]c(C)c1S(=O)(=O)NCCCc1ccco1

>  <class>
active

$$$$
>  <compound>
O=C(Nc1ccc(-c2cscn2)cc1)C1CCCN(Cc2ccc(CO)o2)C1 (centres undefined)

>  <class>
inactive

$$$$
>  <compound>
CCN(CC)c1ccc(NC(=O)c2ccc(=O)[nH]c2)cc1S(=O)(=O)Nc1ccc(OC)cc1

>  <class>
inactive

$$$$
>  <compound>
O=C(CSc1nnc(-c2cccnc2)n1Cc1ccco1)c1ccc(Cl)cc1

>  <class>
inactive

$$$$
>  <compound>
O=C(Nc1cnn(Cc2ccc(Cl)cc2)c1)C1CCCC1

>  <class>
inactive

$$$$
>  <compound>
CCOC(=O)c1c(C)[nH]c(C)c1S(=O)(=O)N(C)CC(=O)Nc1ccccc1C

>  <class>
inactive

$$$$
>  <compound>
CSc1ncc(Sc2ccccc2)c(C(=O)O)n1

>  <class>
inactive

$$$$
>  <compound>
COc1cc(/C=N/O)cc(Br)c1OS(=O)(=O)c1ccc(C)cc1

>  <class>
active

$$$$
>  <compound>
COc1cc(NC(=O)c2ccccc2NS(=O)(=O)c2ccc(Cl)s2)cc(OC)c1

>  <class>
active

$$$$
>  <compound>
c1ccc(CSc2nnc(-c3ccco3)c(-c3ccco3)n2)cc1

>  <class>
inactive

$$$$
>  <compound>
O=C(NC1CCCC1)C1CCN(C(=O)Nc2cccc(Cl)c2)CC1

>  <class>
inactive

$$$$
>  <compound>
CSc1nc2ccccc2c(=O)n1Cc1ccc(F)cc1

>  <class>
inactive

$$$$
>  <compound>
C(=C\c1ccccc1)/CSc1nnc(-c2cccnc2)n1Cc1ccco1

>  <class>
active

$$$$
>  <compound>
c1ccc(CSc2nnc(-c3ccco3)n2Cc2ccccc2)cc1

>  <class>
active

$$$$
>  <compound>
Cc1cc(C)c(C)c(S(=O)(=O)Nc2ccc(O)cc2)c1C

>  <class>
active

$$$$
>  <compound>
O=C(c1cc(-c2ccco2)nc2ccccc12)N(Cc1nnc(-c2ccc(Cl)cc2)o1)C1CC1

>  <class>
inactive

$$$$
>  <compound>
Cc1ccc(NC(=O)C2CC(=O)N(c3ccc4c(c3)OCCO4)C2)cc1S(=O)(=O)N1CCCCCC1 (centres undefined)

>  <class>
inactive

$$$$
>  <compound>
O=C(NCc1ccncc1)c1ccc(NS(=O)(=O)c2cccc([N+](=O)[O-])c2)cc1

>  <class>
inactive

$$$$
